Assay: Rat 28-day GLP repeat dose PO study (toxicokinetics)
Format: in vivo
Conditions: female, rat, in vivo, po, 500 mg/kg, Day 14, F, 500 mg/kg PO; read-out: t1/2 (converted)
Method: The vehicle was 0.5% HPMC. There were 15 rats/sex in the control and high dose groups (5/sex for a 14-day recovery period) while the low and mid doses consisted of 10 rats/sex. Satellite groups of rats/sex/group for toxicokinetics were included. Rats in Group 1 (Vehicle Control) were bled once at approximately 1 hour post-dose on those days.
Counter-ions that a name gives are not always drawn.
assayMetric: half-life (h)
Record the value in h, omitting the unit from your answer.

Would you mind telling me what half-life value was observed for CC1(C)SC(Nc2ccccc2O)=N[C@@H]1C(=O)O [Compound 1, mono-hydrochloride] ?
4.2

====

Experiment: Rat 28-day GLP repeat dose PO study (toxicokinetics)
Type: in vivo
Conditions: male, rat, in vivo, po, 2000 mg/kg, Day 1, M, 2000 mg/kg PO; read-out: V/F (Vz/F)
Where a name gives a salt, the structure may show the parent alone.
assayMetric: Vd/F (L/kg)
Value expressed in L/kg; do not type the unit.

Which Vd/F reading was recorded for the compound CC1(C)SC(Nc2ccccc2O)=N[C@@H]1C(=O)O [Compound 1, mono-hydrochloride] ?
10.5

====

Assay: Dog 7-day repeat dose PO study
Assay type: in vivo
Conditions: female, plasma, 200 mg/kg, Day 7, 200 mg/kg PO, F, N = 1
Structures can show the parent of a compound that is named as a salt.
assayMetric: AUC(0-t) (µg·h/mL)
Give a bare numeral; the unit µg·h/mL is implied.

Please look up its AUC(0-t): CC1(C)SC(Nc2ccccc2O)=N[C@@H]1C(=O)O [Compound 1, mono-hydrochloride]
411

====

Experiment: Dog single oral dose MTD study
Assay type: in vivo
Conditions: female, dog, plasma; 350 mg/kg PO (Dose 3; Day 9), 2 h, F, N = 2; read-out: Average Compound 1 Concentration in dog plasma
Method: The objective of a third single dose study in dogs was to determine the maximum tolerated dose (MTD) of Compound 1 following a single oral (gavage) dose in male and female dogs. Using a pyramiding dose schedule, dose levels of 250, 350 and 500 mg/kg were administered to 2 dogs/sex (after a washout period of at least three days, the same animals were dosed with the next dose level). The dose volume was 10 mL/kg body weight. The vehicle was 0.5% aqueous HPMC.
Structures can show the parent of a compound that is named as a salt.
assayMetric: concentration at 2 h (µg/mL)
Provide the reading as a plain figure in µg/mL.

GET /values?readout=concentration at 2 h&item= CC1(C)SC(Nc2ccccc2O)=N[C@@H]1C(=O)O [Compound 1, mono-hydrochloride]
119

====

Assay: Dog single oral dose MTD study
Type: in vivo
Details: female, dog, plasma; 250 mg/kg PO (Dose 1; Day 1), 0.5 h, F, N = 2; read-out: Average Compound 1 Concentration in dog plasma
Counter-ions that a name gives are not always drawn.
assayMetric: concentration at 0.5 h (ng/mL)
# output: bare number, implied unit ng/mL

Name the recorded concentration at 0.5 h for CC1(C)SC(Nc2ccccc2O)=N[C@@H]1C(=O)O [Compound 1, mono-hydrochloride] .
28000

====

Assay: Dog 28-day repeat dose PO study
Type: in vivo
Conditions: female, beagle, dog, in vivo, po, 400 mg/kg, Day 28, 400 mg/kg PO, F; read-out: Cmax
Where a name gives a salt, the structure may show the parent alone.
assayMetric: Cmax (µg/mL)
// units = µg/mL; emit number, no label

Fill in: Cmax of CC1(C)SC(Nc2ccccc2O)=N[C@@H]1C(=O)O [Compound 1, mono-hydrochloride] is ___
131
